# SYSTEM: D(3) dopamine receptor (Homo sapiens) (UniProt P35462)
# Sequence (P35462 whole entry, looked up): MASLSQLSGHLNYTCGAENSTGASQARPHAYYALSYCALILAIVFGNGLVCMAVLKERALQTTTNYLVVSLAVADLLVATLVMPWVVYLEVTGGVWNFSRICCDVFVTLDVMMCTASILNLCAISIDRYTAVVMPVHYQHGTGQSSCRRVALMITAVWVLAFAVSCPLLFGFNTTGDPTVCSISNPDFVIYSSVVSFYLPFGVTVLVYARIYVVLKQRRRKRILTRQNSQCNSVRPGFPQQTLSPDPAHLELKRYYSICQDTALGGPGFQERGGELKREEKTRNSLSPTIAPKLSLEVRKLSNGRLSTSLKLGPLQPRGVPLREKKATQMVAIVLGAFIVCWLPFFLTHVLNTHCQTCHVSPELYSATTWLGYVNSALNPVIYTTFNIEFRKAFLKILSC
# TEST METHOD NOTES: qHTS of D3 Dopamine Receptor Agonist: qHTS; note: 0% is about no effect
# CONDITION DESCRIPTION: D3R DiscoveRx beta-arrestin cells, luminescence, 90 min
Out of some 410,000 compounds screened, about 2,400 (0.59%) were called active. Cut-off read from the data, not from the text of the source: active = max activation above about 30%; inactive = the rest. The full list was thinned out, with actives kept by preference.
Choose one outcome from this list and give only that: 1 (active), -1 (inactive)

Field: example entries. Status: answers known.
COMPOUND	SYSTEM	LABEL VALUE
N#CC(C(=O)c1ccc(S(=O)(=O)N2CCCCCC2)cc1)c1nc2ccccc2[nH]1 (stereo not given)	D(3) dopamine receptor (Homo sapiens) (UniProt P35462)	-1
COc1ccc(-c2nc3c(s2)CCc2onc(-c4ccc(Br)cc4)c2-3)cc1	D(3) dopamine receptor (Homo sapiens) (UniProt P35462)	1
Cc1ccc(NC(=O)CSc2nc3c([nH]c4ccccc43)c(=O)n2-c2ccccc2)cc1Cl	D(3) dopamine receptor (Homo sapiens) (UniProt P35462)	-1
CCN1CCN(C(=O)c2ccc(CN(c3ccc(C)c(C)c3)S(C)(=O)=O)cc2)CC1	D(3) dopamine receptor (Homo sapiens) (UniProt P35462)	-1
O=C(/C=C/c1cccc(F)c1)NC1CC1	D(3) dopamine receptor (Homo sapiens) (UniProt P35462)	-1
COc1cccc2cc(-c3nc(Cl)c4c5c(sc4n3)CC(C)CC5)c(=O)oc12 (stereo not given)	D(3) dopamine receptor (Homo sapiens) (UniProt P35462)	-1
CCOc1ccc(S(=O)(=O)N(CC(=O)NCCSCc2ccc(C)cc2)c2ccccc2)cc1	D(3) dopamine receptor (Homo sapiens) (UniProt P35462)	-1
C=C1C(=C/C=C2\CCC[C@]3(C)[C@@H]([C@H](C)CCCC(C)(C)O)CC[C@@H]23)C[C@@H](O)C[C@@H]1O	D(3) dopamine receptor (Homo sapiens) (UniProt P35462)	1
CCc1ccc(S(=O)(=O)c2nnn3c2nc(N2CCN(CC)CC2)c2sccc23)cc1	D(3) dopamine receptor (Homo sapiens) (UniProt P35462)	-1
COc1ccc(-n2c(=O)c3ccccc3n(Cc3ccccc3Cl)c2=O)cc1	D(3) dopamine receptor (Homo sapiens) (UniProt P35462)	-1

Record request — test call for CCOC(=O)CSc1nnc(CNC(=O)c2cccs2)n1-c1cc(OC)ccc1OC
-1

Record request — test call for Cc1cc(C)c(NC(=O)Cn2c(SCC(=O)NCc3ccccc3)nc3ccccc32)c(C)c1
-1

Record request — test call for NC(=O)c1ncn([C@@H]2O[C@H](CN=C3NS(=O)(=O)c4ccccc43)[C@@H](O)[C@H]2O)n1
1

Record request — test call for Cc1cccc2nc(CSc3nc4[nH]ncc4c(=O)n3-c3cccc(Cl)c3)cc(=O)n12
1

Record request — test call for Cc1ccc(S(=O)(=O)C(C#N)c2nc3ccccc3nc2N2CCCC2)cc1C (stereo not given)
1

Record request — test call for COc1ccc(-c2nc3n(c2Br)CCC3)cc1
-1

Record request — test call for COc1ccc(CCNC(=O)COc2cc(C)cc3oc(=O)c(C)c(C)c23)cc1OC
1

Record request — test call for Cc1ccc(N(Cc2ccc(C(=O)Nc3ccccc3C(=O)NCc3ccco3)cc2)S(C)(=O)=O)cc1C
1

Record request — test call for CS(=O)(=O)N(Cc1ccc(Cl)cc1)c1ccc(C(=O)NCCSCc2ccco2)cc1
-1

Record request — test call for Cc1cc(OCC(=O)NCC(O)c2ccccc2)c2c(C)c(C)c(=O)oc2c1 (stereo not given)
-1

Where these numbers come from: PubChem BioAssay AID652048
